- Assay Target: Sepiapterin reductase (Homo sapiens, UniProt P35270)
- Sequence (P35270 whole entry): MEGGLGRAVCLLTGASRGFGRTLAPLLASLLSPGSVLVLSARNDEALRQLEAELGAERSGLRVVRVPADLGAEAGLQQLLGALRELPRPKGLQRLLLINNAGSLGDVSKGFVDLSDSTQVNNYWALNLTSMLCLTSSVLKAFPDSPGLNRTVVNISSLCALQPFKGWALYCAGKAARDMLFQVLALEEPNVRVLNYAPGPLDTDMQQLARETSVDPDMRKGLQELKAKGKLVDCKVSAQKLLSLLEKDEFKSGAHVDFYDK
- Method: Inhibition of sepiapterin reductase (unknown origin)
- Conditions: read-out: IC50
pIC50: −log10 of the molar value.
Label rule, in plain words: pIC50 of 7 and up is criterion met, under 7 is criterion not met.

Test whether the compound Cc1nn(CCO)c2ncc(C(=O)c3cc(F)ccc3O)cc12 records pIC50 of 7 or higher. criterion met

Test whether the compound COc1ccc(O)c(C(=O)c2cnc3c(c2)c(C)nn3C)c1 records pIC50 of 7 or higher. criterion not met

Test whether the compound Cc1nn(C2CCOCC2)c2ncc(C(=O)c3ccccc3O)cc12 records pIC50 of 7 or higher. criterion met

Test whether the compound Cc1nn(-c2ccccn2)c2ncc(C(=O)c3cc(F)ccc3O)cc12 records pIC50 of 7 or higher. criterion met

Test whether the compound COc1ccc(O)c(C(=O)c2cnc3c(c2)c(C)nn3-c2cccc(C)c2)c1 records pIC50 of 7 or higher. criterion not met

###

Record form. Attribute: pIC50. Fill in for each entry.
- Assay Target: Sepiapterin reductase (Homo sapiens, UniProt P35270)
- Method: Inhibition of sepiapterin reductase (unknown origin)
- Conditions: read-out: IC50
Just so you know, pIC50 here is -log10 of the concentration in molar units; reply with that number alone.

Field request: pIC50 | item: Cc1ccnc(-n2nc(C)c3cc(C(=O)c4ccccc4O)cnc32)c1 7.30

Field request: pIC50 | item: Cc1nn(-c2ccccn2)c2ncc(C(=O)c3ccccc3O)cc12 6.74

Field request: pIC50 | item: Cc1nn(-c2ccccn2)c2ncc(C(=O)c3cc(Cl)ccc3O)cc12 7.10

Field request: pIC50 | item: Cc1nn(CCO)c2ncc(C(=O)c3cc(Cl)ccc3O)cc12 7.40

Field request: pIC50 | item: Cc1nn(C)c2ncc(C(=O)c3cc(F)ccc3O)cc12 7.40

Field request: pIC50 | item: Cc1nn(C)c2ncc(C(=O)c3ccccc3O)cc12 7.10

Field request: pIC50 | item: Cc1nn(-c2ccccc2F)c2ncc(C(=O)c3ccccc3O)cc12 7.30

Field request: pIC50 | item: Cc1n[nH]c2ncc(C(=O)c3cc(F)ccc3O)cc12 7.30

Field request: pIC50 | item: Cc1nn(-c2ccncn2)c2ncc(C(=O)c3ccccc3O)cc12 6.85

Field request: pIC50 | item: Cc1cccc(-n2nc(C)c3cc(C(=O)c4ccccc4O)cnc32)c1 5.87

Field request: pIC50 | item: COc1ccc(O)c(C(=O)c2cnc3c(c2)c(C)nn3-c2ccccc2)c1 4.77

Field request: pIC50 | item: Cc1nn(-c2ccc(F)cc2)c2ncc(C(=O)c3ccccc3O)cc12 6.09

Field request: pIC50 | item: Cc1nn(C2CCCS2(=O)=O)c2ncc(C(=O)c3cc(F)ccc3O)cc12 (centres undefined) 7.70

Field request: pIC50 | item: Cc1nn(-c2ccccc2)c2ncc(C(=O)c3cc(F)ccc3O)cc12 6.74

Field request: pIC50 | item: Cc1nn(-c2ccccc2)c2ncc(C(=O)c3ccccc3O)cc12 6.07

Field request: pIC50 | item: Cc1ccc(O)c(C(=O)c2cnc3c(c2)c(C)nn3C)c1 6.01

Field request: pIC50 | item: Cc1nn(C2CCOC2)c2ncc(C(=O)c3ccccc3O)cc12 (centres undefined) 7.52

Field request: pIC50 | item: Cc1ccc(O)c(C(=O)c2cnc3c(c2)c(C)nn3-c2ccccn2)c1 5.76
